- measuredTarget: PI3-kinase p110-delta/p85-alpha (Homo sapiens, UniProt O00329)
- Sequence (P27986 whole entry): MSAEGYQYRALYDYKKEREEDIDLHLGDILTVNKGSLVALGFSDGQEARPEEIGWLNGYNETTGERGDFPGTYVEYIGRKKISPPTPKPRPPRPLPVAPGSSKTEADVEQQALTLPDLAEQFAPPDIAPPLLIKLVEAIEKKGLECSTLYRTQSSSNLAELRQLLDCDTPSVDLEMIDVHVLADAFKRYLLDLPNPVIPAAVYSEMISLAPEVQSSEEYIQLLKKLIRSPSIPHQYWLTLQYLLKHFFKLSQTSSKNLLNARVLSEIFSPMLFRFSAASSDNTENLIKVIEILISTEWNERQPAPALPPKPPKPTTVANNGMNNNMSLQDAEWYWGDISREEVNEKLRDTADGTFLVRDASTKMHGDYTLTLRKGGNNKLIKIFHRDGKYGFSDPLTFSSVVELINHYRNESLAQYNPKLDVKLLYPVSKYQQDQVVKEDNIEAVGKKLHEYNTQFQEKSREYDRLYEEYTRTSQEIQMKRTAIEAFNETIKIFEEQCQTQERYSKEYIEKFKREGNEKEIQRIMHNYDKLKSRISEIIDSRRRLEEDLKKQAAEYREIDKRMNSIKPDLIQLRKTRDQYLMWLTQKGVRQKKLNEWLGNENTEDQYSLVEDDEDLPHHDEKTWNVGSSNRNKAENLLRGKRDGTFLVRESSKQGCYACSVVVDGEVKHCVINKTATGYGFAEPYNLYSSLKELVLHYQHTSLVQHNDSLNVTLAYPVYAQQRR
- Sequence (O00329 whole entry): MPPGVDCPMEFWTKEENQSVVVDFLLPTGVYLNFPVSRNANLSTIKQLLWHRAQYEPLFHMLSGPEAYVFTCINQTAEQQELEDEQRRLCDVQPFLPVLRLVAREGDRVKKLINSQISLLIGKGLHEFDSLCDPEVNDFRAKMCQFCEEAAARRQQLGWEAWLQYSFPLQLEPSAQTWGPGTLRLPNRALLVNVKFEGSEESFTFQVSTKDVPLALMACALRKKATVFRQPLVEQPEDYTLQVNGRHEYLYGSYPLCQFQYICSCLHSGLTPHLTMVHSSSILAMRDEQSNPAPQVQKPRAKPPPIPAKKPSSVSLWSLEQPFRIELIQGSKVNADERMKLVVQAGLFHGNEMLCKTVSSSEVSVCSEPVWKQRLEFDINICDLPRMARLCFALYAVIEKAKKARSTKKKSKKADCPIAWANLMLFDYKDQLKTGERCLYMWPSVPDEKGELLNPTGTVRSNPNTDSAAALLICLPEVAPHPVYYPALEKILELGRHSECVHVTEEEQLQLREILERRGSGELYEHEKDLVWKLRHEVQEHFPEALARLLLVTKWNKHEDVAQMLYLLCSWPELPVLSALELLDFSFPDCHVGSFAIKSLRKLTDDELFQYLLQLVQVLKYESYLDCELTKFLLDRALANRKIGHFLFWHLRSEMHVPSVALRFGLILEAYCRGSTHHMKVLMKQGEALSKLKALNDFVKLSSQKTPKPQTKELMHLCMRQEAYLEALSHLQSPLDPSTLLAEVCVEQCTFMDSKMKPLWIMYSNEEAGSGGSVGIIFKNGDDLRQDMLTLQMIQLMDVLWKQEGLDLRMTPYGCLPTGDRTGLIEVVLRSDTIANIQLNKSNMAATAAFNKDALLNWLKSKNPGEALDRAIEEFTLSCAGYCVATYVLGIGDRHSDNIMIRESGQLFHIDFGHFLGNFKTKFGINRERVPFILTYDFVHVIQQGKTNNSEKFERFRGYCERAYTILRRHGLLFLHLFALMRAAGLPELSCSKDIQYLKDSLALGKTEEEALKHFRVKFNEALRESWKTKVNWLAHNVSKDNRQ
- testMethodNotes: Inhibition of full length recombinant human N-terminal His6-tagged PI3K p110delta/human p85alpha expressed in baculovirus infected sf21 cells using PIP2 as substrate preincubated for 30 mins followed by substrate addition by HTRF assay
measuredEndpoint: IC50 (µM)

Some entries whose results are on file:
>>> observed("N#Cc1c(N)ncnc1NC(CO)c1nn2cccc2c(=O)n1-c1ccccc1 (single isomer, unassigned)")
0.013
>>> observed("C[C@H](Nc1ncnc2[nH]cnc12)c1nn2cccc2c(=O)n1-c1ccccc1")
0.01
>>> observed("C[C@H](Nc1cc(N)ncn1)c1nn2cccc2c(=O)n1-c1ccccc1")
1.2
>>> observed("C[C@H](Nc1nc(N)nc2[nH]cnc12)c1nn2cccc2c(=O)n1-c1ccccc1")
0.0031
>>> observed("Cc1ccccc1-n1c(Cn2cnc3c(N)ncnc32)nn2ccc(C)c2c1=O")
0.11

[a] Cc1ccc2c(=O)n(-c3ccccc3)c([C@H](C)Nc3ncnc(N)c3C#N)nn12
[b] C[C@H](Nc1ncnc(N)c1C#N)c1nn2ccc(C#N)c2c(=O)n1-c1ccccc1
Task: Could you point out whether the larger IC50 belongs to a or to b ? The response must carry the label of the picked entry.
Output: a
